# TARGET: T1, GFP-fused huCB1-SMALP (human CB1 in styrene maleic acid lipoparticles) (human, UniProt P21554 1-472)
# T1 construct: Prepared as in Luna V. et al. 2018; also called huCB1-GFP-SMALP; wtCB1-SMALP; not shown: GFP fusion
# T1 sequence (P21554 whole entry, the tested form may be a part): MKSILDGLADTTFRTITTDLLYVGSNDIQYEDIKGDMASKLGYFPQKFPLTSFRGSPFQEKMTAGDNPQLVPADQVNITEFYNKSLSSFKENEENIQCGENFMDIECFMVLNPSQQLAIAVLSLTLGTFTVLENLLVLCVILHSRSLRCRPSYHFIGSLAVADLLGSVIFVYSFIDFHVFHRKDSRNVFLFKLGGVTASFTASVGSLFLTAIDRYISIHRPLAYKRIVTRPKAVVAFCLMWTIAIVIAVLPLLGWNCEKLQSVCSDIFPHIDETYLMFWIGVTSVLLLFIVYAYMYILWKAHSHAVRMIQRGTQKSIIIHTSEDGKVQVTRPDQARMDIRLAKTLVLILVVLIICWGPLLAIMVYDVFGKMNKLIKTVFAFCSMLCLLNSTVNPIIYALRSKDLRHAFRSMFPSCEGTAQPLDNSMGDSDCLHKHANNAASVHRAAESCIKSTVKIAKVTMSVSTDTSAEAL
# EXPERIMENT SUMMARY: flow cytometry, yeast-displayed IgG, GFP MFI
EXPERIMENTAL ENDPOINT: 100 nM huCB1-GFP-SMALP binding (normalized to 10D10N35Y) (fold)
Quick note: give the figure in fold, leave out the unit.

// LIBC528131-1 (antibody, V domains shown, VK3 LC) VH: QVQLQESGPGLVKPSQTLSLTCTVSGGSIRRGGDYWSWIRQHPGKGLEWIGHIYQTGQTAYNPNLEGRATISVNTYKNQFSLKLSSVTAADTAVYYCARDYDILTGYSYYYYGMDVWGQGTTVTVSS VL: EIVLTQSPATLSLSPGERATLSCRASQSVSSYLGWYQQKPGQAPRLLIYGASSRATGIPDRFSGSGSGTDFTLTISRLEPEDFAVYYCQQYGSSPRTFGQGTKVEIKR : 100 nM huCB1-GFP-SMALP binding (normalized to 10D10N35Y) value = 3.68

meta.source: patent US20250277029A1
